# Tested on: SW1353
# Experimental Protocol: relative viability vs DMSO control (72 h) (fraction); higher = more viable cells
# Experimental Conditions: 10 µM
Threshold check on relative viability: strictly below 0.1 is true; on or above 0.1 is false.

Bench note: check whether C[C@@H]1CCN(C(=O)CC#N)C[C@@H]1N(C)c1ncnc2[nH]ccc12 [Tofacitinib] shows relative viability below 0.1
false

Bench note: check whether C=CC(=O)N1CCC[C@@H](n2nc(-c3ccc(Oc4ccccc4)cc3)c3c(N)ncnc32)C1 [Ibrutinib] shows relative viability below 0.1
false

Bench note: check whether COc1cc2c(Oc3ccc4[nH]c(C)cc4c3F)ncnc2cc1OCCCN1CCCC1 [Cediranib] shows relative viability below 0.1
true

Bench note: check whether CC(=O)Nc1cccc(-n2c(=O)n(C3CC3)c(=O)c3c(Nc4ccc(I)cc4F)n(C)c(=O)c(C)c32)c1 [Trametinib] shows relative viability below 0.1
false

Bench note: check whether C=CC(=O)Nc1cccc(Oc2nc(Nc3ccc(N4CCN(C)CC4)cc3)nc3ccsc23)c1 [Olmutinib] shows relative viability below 0.1
false

Bench note: check whether Cc1cnc(Nc2ccc(OCCN3CCCC3)cc2)nc1Nc1cccc(S(=O)(=O)NC(C)(C)C)c1 [Fedratinib] shows relative viability below 0.1
true

Bench note: check whether Cn1cc(-c2cc3c(N4CCN(c5ncc([C@@](C)(N)c6ccc(F)cc6)cn5)CC4)ncnn3c2)cn1 [Avapritinib] shows relative viability below 0.1
false

Bench note: check whether Cc1cc(C)c(/C=C2\C(=O)Nc3ccccc32)[nH]1 [Semaxanib] shows relative viability below 0.1
false

----------
# System: A204
# Experimental Protocol: relative viability vs DMSO control (72 h) (fraction); higher = more viable cells
# Experimental Conditions: 10 µM
Outcome Measure: relative viability
Reply with just the number.

May I ask what relative viability has been recorded for "CNC(=O)c1cc(Oc2ccc(NC(=O)Nc3ccc(Cl)c(C(F)(F)F)c3)c(F)c2)ccn1" ?
0.219

May I ask what relative viability has been recorded for "O=C(Cc1ccc(-c2ccc(OCCN3CCOCC3)cc2)cn1)NCc1ccccc1" ?
0.266

May I ask what relative viability has been recorded for "C[C@@H]1COCCN1c1cc(-c2ccnn2C)c2ccnc(-c3ccn[nH]3)c2n1" ?
0.222

May I ask what relative viability has been recorded for "C=CC(=O)N1CCC[C@@H](n2nc(-c3ccc(Oc4ccccc4)cc3)c3c(N)ncnc32)C1" ?
0.525

----------
# Tested on: SYO-1
# Experimental Protocol: relative viability vs DMSO control (72 h) (fraction); higher = more viable cells
# Experimental Conditions: 0.3704 µM
Counter-ions that a name gives are not always drawn.
Threshold check on relative viability: strictly below 0.7 is Fulfilled; on or above 0.7 is Not fulfilled.

Bench note: check whether "C=CC(=O)Nc1cccc(Oc2nc(Nc3ccc(N4CCN(C)CC4)cc3)nc3ccsc23)c1" shows relative viability below 0.7
Not fulfilled

Bench note: check whether "CC1(C)CNc2cc(NC(=O)c3cccnc3NCc3ccncc3)ccc21" shows relative viability below 0.7
Not fulfilled

Bench note: check whether "C[C@@H](c1ccc2nccn2c1)n1nnc2ncc(-c3cnn(C)c3)nc21" shows relative viability below 0.7
Not fulfilled

Bench note: check whether COc1cccc2c1C(=O)c1c(O)c3c(c(O)c1C2=O)C[C@@](O)(C(=O)CO)C[C@@H]3O[C@H]1C[C@H](N)[C@H](O)[C@H](C)O1 [Doxorubicin Hydrochloride] shows relative viability below 0.7
Fulfilled

Bench note: check whether CC(C)NC(=O)C1CCC(n2c(NC(=O)c3ccc(F)cc3)nc3ccc(CN4CCC(C(C)(C)O)CC4)cc32)CC1 (stereo not drawn) shows relative viability below 0.7
Not fulfilled

Bench note: check whether "CCCS(=O)(=O)Nc1ccc(F)c(C(=O)c2c[nH]c3ncc(-c4ccc(Cl)cc4)cc23)c1F" shows relative viability below 0.7
Not fulfilled

Bench note: check whether "Cn1cc(-c2cc3c(N4CCN(c5ncc([C@@](C)(N)c6ccc(F)cc6)cn5)CC4)ncnn3c2)cn1" shows relative viability below 0.7
Fulfilled
